test system: E. coli assay strain Km3; test: Liquid B-galactosidase assays of chlorsulfuron repressor hits (induction and repression); details: CsL4.2 hits; liquid B-galactosidase assay, 20 ppb Cs
Recorded Endpoint: IND = induction with 20 ppb CS (B-galactosidase)

[[record]]
molecule = "CsL4.2-18 (protein, Sulfonylurea responsive repressor) MARLDKSKVINSALELLNEVGIEGLTTRKLAQKLGVEQPTLYWHVKNKRALLDALAIEMMDRHQTHYLPLEGESWQDFLRNFAKSMRCALLSHRDGAKVALGTRWTEQQYETAENMLAFLTQQGFSLENALYATSAVRVFTLGAVLLDQEQQVAKEERETPTPDRMPPLLRQAWELKVHQGAEPAFLFGLELLIAGLEKQLKRESGSHHHHHH"
observed_measurement = 6.8

[[record]]
molecule = "CsL4.2-12 (protein, Sulfonylurea responsive repressor) MARLDKSKVINSALELLNEVGIEGLTTRKLAQKLGVEQPTLYWHVKNKRALLDALAIEMHDRHGTHYLPLEGESWQDFLRNFAKSMRRALLSHRDGAKVALGTRWTEQQYETAENMLAFLTQQGFSLENALYATSAVRVFTLGAVLLDQEGQVANEERETPTTDSMPPLLRQAWELKVHQGAEPAFLFGLELIIAGLEKQLKRESGSHHHHHH"
observed_measurement = 6.4

[[record]]
molecule = "CsL4.2-24 (protein, Sulfonylurea responsive repressor) MARLDKSKVINSALELLNEVGIEGLTTRKLAQKLGVEQPTLYWHVKNKRALLDALAIEMHDRHQTHYLPLEGESWQDYLRNFAKSMRCALLSHRDGAKVALGTRWTEQQYETAENMLAFLTQQGFSLENALYATSAVRVFTLGAVLLDQEGQVANEERETPTPDSMPPLLRQAWELKVHQGAEPAFLFGLELIIAGLEKQLKRESGSHHHHHH"
observed_measurement = 5.4

[[record]]
molecule = "L8-3F01: library L8 chlorsulfuron repressor hit, parent for saturation mutagenesis (protein, Sulfonylurea responsive repressor, library L8 chlorsulfuron repressor hit, parent for saturation mutagenesis) MARLDKSKVINSALELLNEVGIEGLTTRKLAQKLGVEQPTLYWHVKNKRALLDALAIEMMDRHQTHYLPLEGESWQDFLRNNAKSCRRALLSHRDGAKVCLGTRWTEQQYETAENMLAFLTQQGFSLENALYAVSAVRVFTLGAVLFDQESQVAKEERETPTTDSMPPLLRQAWELKDHQGAEPAFLFGLELIIAGLEKQLKRESGS"
observed_measurement = 0.9

[[record]]
molecule = "CsL4.2-20: Chlorsulfuron (Cs) repressor, top hit of library CsL4.2 (protein, Sulfonylurea responsive repressor) MARLDKSKVINSALELLNEVGIEGLTTRKLAQKLGVEQPTLYWHVKNKRALLDALAIEMHDRHQTHYLPLEGESWQDFLRNFAKSMRLALLSHRDGAKVSLGTRWTEQQYETAENMLAFLTQQGFSLENALYATDAVRVFTLGAVLLDQEQQVAKEERETPTPDSMPPLLRQAWELKVHQGAEPAFLFGLELIIAGLEKQLKRESGS"
observed_measurement = 7.4

[[record]]
molecule = "CsL4.2-17 (protein, Sulfonylurea responsive repressor) MARLDKSKVINSALELLNEVGIEGLTTRKLAQKLGVEQPTLYWHVKNKRALLDALAIEMMDRHQTHYLPLEGESWQDYLRNFAKSMRCALLSHRDGAKVALGTRWTEQQYETAENMLAFLTQQGFSLENALYATSAVRVFTLGAVLLDQEQQVAKEERETPTTDSMPPLLRQAWELKVHQGAEPAFLFGLELIIAGLEKQLKRESGSHHHHHH"
observed_measurement = 3.1

[[record]]
molecule = "CsL4.2-01 (protein, Sulfonylurea responsive repressor) MARLDKSKVINSALELLNEVGIEGLTTRKLAQKLGVEQPTLYWHVKNKRALLDALAIEMHDRHQTHYLPLEGESWQDYLRNFAKSMRRALLSHRDGAKVALGTRWTEQQYETAENMLAFLTQQGFSLENALYATDAVRVFTLGAVLLDQEGQVAKEERETPTTDSMPPLLRQAWELKVHQGAEPAFLFGLELIIAGLEKQLKRESGSHHHHHH"
observed_measurement = 3.8

[[record]]
molecule = "CsL4.2-07 (protein, Sulfonylurea responsive repressor) MARLDKSKVINSALELLNEVGIEGLTTRKLAQKLGVEQPTLYWHVKNKRALLDALAIEMHDRHQTHYLPLEGESWQDYLRNFAKSMRCALLSHRDGAKIALGTRWTEQQYETAENMLAFLTQQGFSLENALYATDAVRVFTLGAVLLDQEQQVAKEERETPTPDSMPPLLRQAWELKVHQGAEPAFLFGLELIIAGLEKQLKRESGSHHHHHH"
observed_measurement = 6.5

[[record]]
molecule = "CsL4.2-30 (protein, Sulfonylurea responsive repressor) MARLDKSKVINSALELLNEVGIEGLTTRKLAQKLGVEQPTLYWHVKNKRALLDALAIEMHDRHQTHYLPLEGESWQDFLRNFAKSMRRALLSHRDGAKVALGTRWTEQQYETAENMLAFLTQQGFSLENALYATSAVRVFTLGAVLLDQEGQVANEERETPTPDSMPPLLRQAWELKVHQGAEPAFLFGLELIIAGLEKQLKRESGSHHHHHH"
observed_measurement = 4.9

